This collection of values is drawn from patent US20030229005A1.

Test Target: T1, collagenase 1 (UniProt P03956 100-469, limits assumed)
T1 sequence (looked up): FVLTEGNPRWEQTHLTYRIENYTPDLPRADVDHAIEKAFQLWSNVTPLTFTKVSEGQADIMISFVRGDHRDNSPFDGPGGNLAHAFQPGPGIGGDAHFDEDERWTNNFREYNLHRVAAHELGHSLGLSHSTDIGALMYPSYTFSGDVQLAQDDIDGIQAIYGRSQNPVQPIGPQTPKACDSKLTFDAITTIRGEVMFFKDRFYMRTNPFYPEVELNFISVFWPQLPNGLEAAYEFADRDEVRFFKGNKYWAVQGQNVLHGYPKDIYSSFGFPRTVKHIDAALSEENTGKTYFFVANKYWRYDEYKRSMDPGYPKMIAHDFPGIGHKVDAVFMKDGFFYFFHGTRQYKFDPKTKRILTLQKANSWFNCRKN
Protocol: cell-based or functional assay
*1 amine or outer side, *2 acyl side, *3 side chain or, on linkers, in order; H or OH if unused. [ ]: non-standard residue; d: D form. The star is where a group is joined. Dnp = O=[N+]([O-])c1ccc(*)c([N+](=O)[O-])c1; C(Me) = CSC[C@H](N[*:1])C(=O)[*:2]
Binary label based on Selectivity v. Coll-3 with cut-off 500 unitless: below gives MET, not below gives NOT MET.

Binder	Qualitative Label
Dnp-GPKGITS-NH2 (SMILES CC[C@H](C)[C@H](NC(=O)CNC(=O)[C@H](CCCCN)NC(=O)[C@@H]1CCCN1C(=O)CNc1ccc([N+](=O)[O-])cc1[N+](=O)[O-])C(=O)N[C@H](C(=O)N[C@@H](CO)C(N)=O)[C@@H](C)O) [Dnp-GPKGITS-NH2]	NOT MET
Dnp-GPAPFRV[C(Me)]-NH2 (SMILES CSC[C@H](NC(=O)[C@@H](NC(=O)[C@H](CCCNC(=N)N)NC(=O)[C@H](Cc1ccccc1)NC(=O)[C@@H]1CCCN1C(=O)[C@H](C)NC(=O)[C@@H]1CCCN1C(=O)CNc1ccc([N+](=O)[O-])cc1[N+](=O)[O-])C(C)C)C(N)=O) [Dnp-GPAPFRVC(Me)-NH2]	NOT MET
Dnp-GPLQMRG-NH2 (SMILES CSCC[C@H](NC(=O)[C@H](CCC(N)=O)NC(=O)[C@H](CC(C)C)NC(=O)[C@@H]1CCCN1C(=O)CNc1ccc([N+](=O)[O-])cc1[N+](=O)[O-])C(=O)N[C@@H](CCCNC(=N)N)C(=O)NCC(N)=O) [Dnp-GPLQMRG-NH2]	MET
Dnp-GPLGFRG[C(Me)]-NH2 (SMILES CSC[C@H](NC(=O)CNC(=O)[C@H](CCCNC(=N)N)NC(=O)[C@H](Cc1ccccc1)NC(=O)CNC(=O)[C@H](CC(C)C)NC(=O)[C@@H]1CCCN1C(=O)CNc1ccc([N+](=O)[O-])cc1[N+](=O)[O-])C(N)=O) [Dnp-GPLGFRGC(Me)-NH2]	NOT MET
Dnp-GPLPLHG[C(Me)]-NH2 (SMILES CSC[C@H](NC(=O)CNC(=O)[C@H](Cc1c[nH]cn1)NC(=O)[C@H](CC(C)C)NC(=O)[C@@H]1CCCN1C(=O)[C@H](CC(C)C)NC(=O)[C@@H]1CCCN1C(=O)CNc1ccc([N+](=O)[O-])cc1[N+](=O)[O-])C(N)=O) [Dnp-GPLPLHGC(Me)-NH2]	MET
Dnp-GPLPFHV[C(Me)]-NH2 (SMILES CSC[C@H](NC(=O)[C@@H](NC(=O)[C@H](Cc1c[nH]cn1)NC(=O)[C@H](Cc1ccccc1)NC(=O)[C@@H]1CCCN1C(=O)[C@H](CC(C)C)NC(=O)[C@@H]1CCCN1C(=O)CNc1ccc([N+](=O)[O-])cc1[N+](=O)[O-])C(C)C)C(N)=O) [Dnp-GPLPFHVC(Me)-NH2]	NOT MET
Dnp-GPINLHG-NH2 (SMILES CC[C@H](C)[C@H](NC(=O)[C@@H]1CCCN1C(=O)CNc1ccc([N+](=O)[O-])cc1[N+](=O)[O-])C(=O)N[C@@H](CC(N)=O)C(=O)N[C@@H](CC(C)C)C(=O)N[C@@H](Cc1c[nH]cn1)C(=O)NCC(N)=O) [Dnp-GPINLHG-NH2]	MET
Dnp-PSGIHL-NH2 (SMILES CC[C@H](C)[C@H](NC(=O)CNC(=O)[C@H](CO)NC(=O)[C@@H]1CCCN1c1ccc([N+](=O)[O-])cc1[N+](=O)[O-])C(=O)N[C@@H](Cc1c[nH]cn1)C(=O)N[C@@H](CC(C)C)C(N)=O) [Dnp-PSGIHL-NH2]	NOT MET
Dnp-GPLGFRV[C(Me)]-NH2 (SMILES CSC[C@H](NC(=O)[C@@H](NC(=O)[C@H](CCCNC(=N)N)NC(=O)[C@H](Cc1ccccc1)NC(=O)CNC(=O)[C@H](CC(C)C)NC(=O)[C@@H]1CCCN1C(=O)CNc1ccc([N+](=O)[O-])cc1[N+](=O)[O-])C(C)C)C(N)=O) [Dnp-GPLGFRVC(Me)-NH2]	NOT MET
Dnp-PLGMRG-NH2 (SMILES CSCC[C@H](NC(=O)CNC(=O)[C@H](CC(C)C)NC(=O)[C@@H]1CCCN1c1ccc([N+](=O)[O-])cc1[N+](=O)[O-])C(=O)N[C@@H](CCCNC(=N)N)C(=O)NCC(N)=O) [Dnp-PLGMRG-NH2]	MET
Dnp-GPKGMRG-NH2 (SMILES CSCC[C@H](NC(=O)CNC(=O)[C@H](CCCCN)NC(=O)[C@@H]1CCCN1C(=O)CNc1ccc([N+](=O)[O-])cc1[N+](=O)[O-])C(=O)N[C@@H](CCCNC(=N)N)C(=O)NCC(N)=O) [Dnp-GPKGMRG-NH2]	NOT MET
Dnp-GPLSFQG-NH2 (SMILES CC(C)C[C@H](NC(=O)[C@@H]1CCCN1C(=O)CNc1ccc([N+](=O)[O-])cc1[N+](=O)[O-])C(=O)N[C@@H](CO)C(=O)N[C@@H](Cc1ccccc1)C(=O)N[C@@H](CCC(N)=O)C(=O)NCC(N)=O) [Dnp-GPLSFQG-NH2]	NOT MET
